# Tested on: PPARg DBDmut IVT, anti-PPARg (DBD mutation: PPARg1 K132A/R137A, NR concentration 270 nM)
# Measurement Notes: PBM binding z-score (relative to random genomic background probes); higher = stronger binding; sequences stand for … in GC…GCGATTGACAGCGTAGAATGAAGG
Readout Name: PBM binding z-score
Just the number, please.

CCTCGGAGGTCAACAGGAGGTCAGAGCTGCCAGA | -0.488
CGAACTAGGTCTAAGGACAGTGAAAGGCGACGTA | -0.598
TAGCCTAGGTCATGCGGCCCAGTATAGTGTCGGC | -0.404
CAAACGAGGTCAAAGGTCAAAGTCGAGCCAACCA | 5.7

As a next step, examine the sequence that follows.
[in] Looking for the measured PBM binding z-score of TACCCTAGGTCATGGGCCAGTATACCACGCGAAC , can you help?
[out] 0.696
